The reported numbers originate from PubChem BioAssay AID248.

Test system: L1210 leukemia ip in BDF1 mice, survival T/C
Test: NCI In Vivo Anticancer Drug Screen. Data for tumor model L1210 Leukemia (intraperitoneal) in B6D2F1 (BDF1) mice
Conditions: endpoint: mean survival time; dose: 100.0 mg/kg/injection; schedule: Q01DX005 (ip); vehicle: saline; higher = longer survival
Inconclusive results and toxic doses are left out.
Examples of compounds with documented T/C follow.

What T/C appears in the records for this compound with L1210 leukemia ip in BDF1 mice, survival T/C? OCC1OC(n2cnc3c(=S)nc(NO)[nH]c32)C(O)C1O (centres undefined)
107 % of control

Then "CSc1ncnc2n[nH]c(Br)c12" ?
93 % of control

Okay, and Nc1ncnc2c1ncn2C1OC(COP(=O)(O)O)C(O)C1OCc1ccccc1 (centres undefined) ?
112 % of control

---
Item CSc1nc(N)nc2c1nc(SC)n2C1OC(CO)C(O)C1O (centres undefined) with L1210 leukemia ip in BDF1 mice, survival T/C - T/C?
102 % of control

* * *

Tested on: L1210 leukemia ip in BDF1 mice, survival T/C
Assay: NCI In Vivo Anticancer Drug Screen. Data for tumor model L1210 Leukemia (intraperitoneal) in B6D2F1 (BDF1) mice
Settings: endpoint: mean survival time; dose: 100.0 mg/kg/injection; schedule: Q01DX001 (ip); vehicle: Klucel (hydroxypropylcellulose) (HPC); higher = longer survival
Toxic doses and inconclusive results are not listed.
Recorded T/C, one value per entry.

Name the reported T/C value associated with the compound "c1cc(-c2sc(-c3ccncc3)c(-c3ccncc3)c2-c2ccncc2)ccn1"
107 % of control

Same again, this time with O=C(NC(c1ccccc1)C(NC(=O)c1ccccc1)c1ccccc1)c1ccccc1 (centres undefined)
99 % of control

Also need "COc1ccc(-n2c(=O)c(N=Nc3ccc(Cl)cc3)c(O)n(-c3ccccc3Cl)c2=S)cc1" , thanks.
97 % of control

What would you report for "Clc1ccc(/C=C2\c3cc(Cl)ccc3-c3c(Cl)cc(Cl)cc32)cc1" ?
91 % of control

# iterate: c1ccc(C2CC3c4ccccc4C2c2cccc[n+]23)nc1 (centres undefined)
101 % of control

More entries:
Name the recorded T/C for "COc1ccccc1-n1c(O)c(N=Nc2ccc(Br)cc2)c(=O)n(-c2ccc(I)cc2)c1=S" .
112 % of control

Also check C/C(=N\NC(N)=O)C1CCC(c2ccccc2)CC1 (centres undefined)
103 % of control

* * *

Tested on: L1210 leukemia ip in BDF1 mice, survival T/C
Test: NCI In Vivo Anticancer Drug Screen. Data for tumor model L1210 Leukemia (intraperitoneal) in B6D2F1 (BDF1) mice
Conditions: endpoint: mean survival time; dose: 50.0 mg/kg/injection; schedule: Q04DX003 (ip); vehicle: Klucel (hydroxypropylcellulose) (HPC); higher = longer survival
Inconclusive results and toxic doses are left out.
Item-by-item account of T/C

Example results:
Can you look up the measured T/C of "CN(C(=O)c1c(Cl)[nH]c2ccccc12)c1ccccc1" for me?
95 % of control

# iterate: CCOC(=O)C(=O)C(C#N)C(=O)OCC (centres undefined)
91 % of control

// repeat for "CN(CCCl)Cc1ccccc1" and report
101 % of control

Ok, now "C/C(=N/N=C(/C)c1ccccc1)c1ccccc1"
110 % of control

# repeat for "Clc1ccc(SCN2CCCCC2)cc1"
95 % of control

Proceed to "O=[N+]([O-])c1cc(Cl)cc(Br)c1O"
105 % of control

More entries:
I am curious: what T/C value has been reported for "NNC(=O)c1ccccc1[N+](=O)[O-]" ?
100 % of control

// query: "Oc1cc[c]([Hg][Cl])cc1"
99 % of control

Also "COc1ccccc1N=Nc1c(O)n(-c2ccccc2C)c(=S)n(-c2ccccc2)c1=O" ?
105 % of control

* * *

Readings of T/C for the listed molecules
Tested on: L1210 leukemia ip in BDF1 mice, survival T/C
Assay: NCI In Vivo Anticancer Drug Screen. Data for tumor model L1210 Leukemia (intraperitoneal) in B6D2F1 (BDF1) mice
Settings: endpoint: mean survival time; dose: 200.0 mg/kg/injection; schedule: Q01DX001 (ip); vehicle: carboxymethylcellulose (CMC); higher = longer survival
Toxic doses and inconclusive results are not listed.

Which T/C value belongs to Clc1cccc(C2ON2C2CCCCC2)c1 (stereo unspecified) ?
100 % of control

Proceed to "Nc1c(Cl)c(Cl)c2c(c1Cl)/C(=N/O)c1cc(Cl)ccc1-2"
95 % of control

Same again, this time with OCC(c1ccccc1)C(O)Cc1ccccc1 (stereo unspecified)
95 % of control

Next record, please: "COc1cc(O)c([N+](=O)[O-])cc1[N+](=O)[O-]"
91 % of control

COC1CC(OC(=O)c2ccc([N+](=O)[O-])cc2)C(OC(=O)c2ccc([N+](=O)[O-])cc2)C(C)O1 (stereo unspecified) ?
102 % of control

Request: "COc1ccc(Cc2nc(-c3ccc(N=Cc4ccc(N(CCCl)CCCl)cc4)cc3)cs2)cc1"
97 % of control

// same read-out, input: "COc1ccccc1CN1CCCN(Cc2ccccc2OC)C1"
105 % of control

Then this molecule: "CCCCCCCCCCCCCC(=O)N(CCC)CCC"
93 % of control

Another molecule: "COc1ccc(C(=O)c2ccc3ccccc3c2)cc1"
92 % of control

"Cc1cc(C(=O)c2ccccc2)ccc1O" , same question.
91 % of control

Next:
Given the molecule CCN(CC)CCCC(C)Nc1c2ccc(Cl)cc2nc2ccc(OC)cc12 (stereo unspecified) , what is its reported T/C?
116 % of control

Next molecule: "Cc1ccc2cc(-c3ccc(C4CCCCC4)cc3)c(N=O)n2c1"
90 % of control

"CC(=O)Nc1cccc(C[P+](c2ccccc2)(c2ccccc2)c2ccccc2)c1" ?
90 % of control

Entry to check: "CC(=O)Nc1c(Br)cc2c(c1Br)Cc1cc(Br)ccc1-2"
97 % of control

// same read-out, input: "COc1ccc(-c2ccc(OC)c(OC)c2)cc1OC"
104 % of control

// query: "Cc1cccn2c(=O)c(/C=N\NC(N)=S)c(Cl)nc12"
96 % of control

// repeat for CC(C)CC(N)C(=O)O (stereo unspecified) and report
91 % of control

Note, next up: CCCCC(C#N)C1CC=CC(C(=O)O)C1 (stereo unspecified)
92 % of control

Do the same for "CSc1ccc(OC(=O)Nc2cccc(Cl)c2)cc1C" please
97 % of control

"CN(/N=N/N(C)c1ccccc1)c1ccccc1" ?
102 % of control

Please give the result for "O=C(Nc1ccc(S(=O)(=O)c2ccc(NC(=O)C(F)(F)Cl)cc2)cc1)C(F)(F)Cl" too.
101 % of control

Also, "CC(=O)N(C)c1ccc(/C=C2\C=Cc3ccccc32)cc1" please.
96 % of control

Another molecule: "O=C1OC2(CCN(Cc3ccccc3)CC2)C(=O)N1c1cccc(Cl)c1"
106 % of control

And then "COc1ccc(N2C(=O)CCC2=S)cc1" , what is it?
102 % of control

Consider next the molecule "Brc1ccc(/C=C2\C=Cc3ccccc32)cc1" in the same way.
93 % of control

What would you report for "COc1ccc(C=Nc2cc([N+](=O)[O-])ccc2O)cc1" ?
98 % of control

* * *

Test system: L1210 leukemia ip in BDF1 mice, survival T/C
Test: NCI In Vivo Anticancer Drug Screen. Data for tumor model L1210 Leukemia (intraperitoneal) in B6D2F1 (BDF1) mice
Settings: endpoint: mean survival time; dose: 100.0 mg/kg/injection; schedule: Q01DX001 (ip); vehicle: Klucel (hydroxypropylcellulose) (HPC); higher = longer survival
Toxic doses and inconclusive results are not listed.
recorded endpoint: T/C

Requested field: T/C. Item: "O=C1c2ccccc2C(=O)N1c1cc([N+](=O)[O-])cc([N+](=O)[O-])c1O"
98 % of control

Now the same for "Cc1nn(C)c(N)c1C#N"
107 % of control

Another compound to check: "Cc1c(N)nc(=S)[nH]c1C(=O)O"
97 % of control

* * *

Measured T/C, listed per entry for reference.
Tested on: L1210 leukemia ip in BDF1 mice, survival T/C
Assay: NCI In Vivo Anticancer Drug Screen. Data for tumor model L1210 Leukemia (intraperitoneal) in B6D2F1 (BDF1) mice
Conditions: endpoint: mean survival time; dose: 100.0 mg/kg/injection; schedule: Q04DX003 (ip); vehicle: Klucel (hydroxypropylcellulose) (HPC); higher = longer survival
Inconclusive results and toxic doses are left out.

Given the entry "c1ccc2c(CCc3ccncc3)cccc2c1" , report its measured T/C.
101 % of control

Same thing, different compound: CC(=O)NC1CCC(CC(=O)O)CC1 (stereo not given)
92 % of control

And what about the compound "COc1cc(Cc2cc(OC)c(O)c(OC)c2)cc(OC)c1O" ?
92 % of control

Further cases:
Query: T/C; subject: "Cc1cc2nc(N)sc2cc1C"
89 % of control

Another compound to check: c1cc2cc3c(cc2c2c1CC1c4cc5c(cc4CCN1C2)OCO5)OCO3 (stereo not given)
101 % of control

// repeat for "O=[N+]([O-])c1ccc(NN(c2ccccc2)c2ccccc2)c([N+](=O)[O-])c1" and report
98 % of control

Now the compound "CCN1C(=O)CC(=O)N(CC)C1=S"
94 % of control

Let us now turn to "COc1cccc(NC(=O)NCCCl)c1OC"
107 % of control
